Measured values drawn from PubChem BioAssay (NCI) for this set.

Test system: SK-MEL-5 melanoma
Assay: NCI tumour cell line growth inhibition, 48 h; in the data active means GI50 below about 0.43 µM; inactive means the rest
Return exactly one item of 1 (yes) (active), 0 (no) (inactive)

Here's what some known entries look like.
N#Cc1ccc2c(c1)C(=O)c1c-2n(CCCN=[N+]=[N-])c(=O)c2cc([N+](=O)[O-])ccc12 = 0 (no)
O=C(c1ccccc1)c1ccccc1C(=O)c1ccccc1 = 0 (no)
N#Cc1ncc(N2C(=O)C3(CCC3)N(c3ccc(OC4CCNCC4)nc3)C2=S)cc1C(F)(F)F = 0 (no)
CC(=O)O[C@H](C[C@H](C(C)C)N(C)C(=O)[C@@H](NC(=O)[C@H]1CCCCN1C)C(C)(C)C)c1nc(C(=O)N[C@@H](Cc2ccccc2)C[C@H](C)C(=O)O)cs1 = 1 (yes)
Cc1cc(Cl)ccc1NC(=O)NC(C)(C)COC(=O)Nc1cccc(Cl)c1 = 0 (no)
Cc1ccc(/C=C2\CN(Cc3cn(CCNc4ccnc5cc(Cl)ccc45)nn3)C/C(=C\c3ccc(C)cc3)C2=O)cc1 = 0 (no)
CCC1OC(/C(C)=C/C(C)/C=C/C2C(C)C2/C=C/C2OC(CC(=O)O)CC(O)C2O)CC=C1C (stereo not drawn) = 0 (no)

-- ask Which result was noted for this compound in the test: NC1CCCCC1N.O=S(=O)([O-])CCCN1CCN(CCO)CC1.O=S(=O)([O-])CCCN1CCN(CCO)CC1.[Pt+4]
-- reply 0 (no)

====

Listed compounds paired with reported TGI
System: 786-0 renal
Test: NCI tumour cell line growth inhibition, 48 h

The following compounds have reported results that may help.
CCCCN(CCCC)C(=O)C(=O)CC(=O)/C=C/c1ccccc1 = > 100 µM
O=C(Nc1ccccc1C(=O)Nc1nccs1)c1ccccc1 = > 100 µM
CCC1OC(/C(C)=C/C(C)/C=C/C2C(C)C2/C=C/C2OC(CC(=O)O)CC(O)C2O)CC=C1C (centres undefined) = > 50 µM
N#Cc1c(NCc2ccccc2)nc(NCc2ccccc2)c(C#N)c1-c1cccc(O)c1 = 27.6 µM
COc1ccccc1N1C(=O)/C(=C\c2cccc(Oc3ccccc3)c2)S(=O)(=O)C1c1ccccc1 (centres undefined) = > 100 µM

-- ask Value wanted: TGI (786-0 renal) of entry COc1ccc(N2C(=O)/C(=C/c3ccc(N(CCC#N)CCC#N)cc3)N=C2c2ccccc2)c(OC)c1
-- reply > 100 µM

====

Listed compounds paired with reported log10 of TGI
Tested on: OVCAR-3 ovarian
Test: NCI tumour cell line growth inhibition, 48 h
Recall that a logarithmic scale is used here: each number is log10 of TGI in µM.

C=C(C(=O)OC)[C@H]1CC/C(C)=C/CC/C(C)=C/CC[C@@]2(C)O[C@@H]2C1 = 1.54
CC(C)=CCC/C(C)=C/[C@H]1OC(=O)CC12C[C@H](O)C=CC2=O (stereo partly drawn) = -0.07
CCCCCCCCCCCCCCC(O)C1CCC(C(O)CCC(O)CCCCCC(O)CC2=CC(C)OC2=O)O1 (stereo not drawn) = 0.68
COc1ccc(C2=NNC(=O)c3ccccc3N2c2nc(-c3cccs3)nc3ccc(Br)cc23)cc1 = 1.72

-- ask Recorded log10 of TGI of Nc1ccc(-c2nc3ccccc3s2)cc1 , please.
-- reply 1.52

-- ask Also need CC[C@H](C)[C@H](NC(=O)c1nccn1C)C(=O)N(C)[C@H](C[C@@H](OC(C)=O)c1nc(C(=O)N[C@@H](Cc2ccccc2)C[C@H](C)C(=O)OC)cs1)C(C)C , thanks.
-- reply 0.22

-- ask Also need O=C(C=P(c1ccccc1)(c1ccccc1)c1ccccc1)c1ccc(-c2ccc(F)cc2F)cc1 , thanks.
-- reply 0.72

-- ask Also need Cc1ccc(/C=C2\CN(Cc3cn(CCNc4ccnc5cc(Cl)ccc45)nn3)C/C(=C\c3ccc(C)cc3)C2=O)cc1 , thanks.
-- reply 0.51

-- ask Also need CC(=O)O[C@H](C[C@H](C(C)C)N(C)C(=O)[C@@H](NC(=O)[C@H]1CCCCN1C)C(C)(C)C)c1nc(C(=O)N[C@@H](Cc2ccccc2)C[C@H](C)C(=O)O)cs1 , thanks.
-- reply -2.35

-- ask Also need FC(F)(F)c1cc(NC2=NCCN=C(Nc3cc(C(F)(F)F)cc(C(F)(F)F)c3)SS2)cc(C(F)(F)F)c1 , thanks.
-- reply 0.94

-- ask Also need O[C@H](CN1CC1)[C@@H](O)CN1CC1 , thanks.
-- reply 1.55
